System: TNF-α
Assay Method Text: LPS stimulation of TNF production by U937 cells
Assay type: cell-based, human
Applied Conditions: Homo sapiens, U-937, TNF production, LPS-stimulated human U937 cells; read-out: U937 Cell IC50
Assay Endpoint: IC50 (nM)

Compound	Units	Result
O=S(=O)(/C=C\c1ccccc1)NCc1[nH]nc(-c2ccc(F)cc2)c1-c1ccncc1 [Example B-0119]	nM	2780
Cc1ccc(S(=O)(=O)NCc2[nH]nc(-c3ccc(F)cc3)c2-c2ccncc2)cc1 [Example B-0118]	nM	1290
CC(Oc1ccccc1)C(=O)NCc1[nH]nc(-c2ccc(F)cc2)c1-c1ccncc1 (stereo not shown) [Example B-0202]	nM	2260
CS(=O)(=O)NCc1[nH]nc(-c2ccc(F)cc2)c1-c1ccncc1 [Example B-0107]	nM	5000
